# Test system: sedge, umbrella
# test protocol: Test D flooded paddy test
# Type: in vivo, Cyperus difformis
# condition summary: 250 g ai/ha, applied to paddy water, visual rating after 13 to 14 days, scale 0 to 100 (0 no effect, 100 complete control)
Quick list: Plant response rating, Sedge, Umbrella (Flood) per entry.
observable: Plant response rating, Sedge, Umbrella (Flood)

molecule: CSCc1ncn(-c2ccc(C)c(C(=O)N3C[C@H](C)Oc4c(Cl)cccc43)c2)n1
value: 90

molecule: COc1ccc(-n2cnc(C(C)(C)O)n2)cc1C(=O)N1C[C@H](C)Oc2c(C)cccc21
value: 95

molecule: CC(C)c1ncn(-c2cc3c(c(C(=O)N4C[C@H](C)Oc5c(Cl)cccc54)c2)OCCO3)n1
value: 98

molecule: COC(C)(C)c1ncn(-c2ccc(C)c(C(=O)N3C[C@H](C)Oc4c(Cl)cccc43)c2)n1
value: 65

molecule: COC[C@H]1CN(C(=O)c2cc(-n3cncn3)ccc2OC)c2cccc(Cl)c2O1
value: 100

molecule: COC(=O)N(C)c1ncn(-c2cccc(C(=O)N3C[C@H](C)Oc4c(C)cccc43)c2)n1
value: 0

molecule: CC(C)c1cc(C(=O)N2C[C@H](C)Oc3c(Cl)cccc32)cc(-n2cncn2)c1
value: 0

molecule: CC(C)c1ncn(-c2cc(OC(F)F)c(OC(F)F)c(C(=O)N3C[C@H](C)Oc4c(Cl)cccc43)c2)n1
value: 0

molecule: Cc1ccc(-n2cnc(C3(C#N)CCC3)n2)cc1C(=O)N1C[C@H](C)Oc2c(Cl)cccc21
value: 25

molecule: COC[C@H]1CN(C(=O)c2cc(-n3cnc(C(C)(C)C)n3)cc3c2OCCO3)c2cccc(Cl)c2O1
value: 25

molecule: Cc1cn(-c2cccc(C(=O)N3C[C@H](C)Oc4c(C)cccc43)c2)cn1
value: 0

molecule: C[C@H]1CN(C(=O)c2cc(-n3cnc(C(C)(C)C)n3)cc3c2OCCO3)c2cccc(Cl)c2O1
value: 70

molecule: Cc1cccc2c1OC(C(F)(F)F)CN2C(=O)c1cccc(-n2cnc(C(C)C)n2)c1 (single isomer, unassigned) [Compound 302]
value: 0

molecule: Cc1ccc(-n2cnc(C(C)(C)O)n2)cc1C(=O)N1C[C@H](C)Oc2c(C)cccc21
value: 98

molecule: Cc1nccc(-c2cccc(C(=O)N3C[C@H](C)Oc4c(C)cccc43)c2)n1
value: 0
